Data origin: ChEMBL document CHEMBL1156597

- Test system: SK-MEL-28
- experimental-details: Cytotoxicity against human SK-MEL-28 cells after 48 hrs by SRB assay
- Type: functional, cell-based
- condition-notes: Homo sapiens, SK-MEL-28, 48 h
value-kind: GI50 (nM)
Express the result in nM but write the number alone.

C/C=C1\NC(=O)[C@H](Cc2ccc3ccccc3c2)NC(=O)[C@@H](C(C)C)NC(=O)[C@@H]([C@H](C)CC)NC(=O)[C@H](NC(=O)[C@H](NC(=O)[C@H](CCCN)NC(=O)[C@H]2CCCN2C(=O)[C@H](NC(=O)[C@@H](NC(=O)[C@@H](NC(=O)[C@H](NC(=O)CCCC(C)C)C(C)C)[C@@H](C)O)C(C)C)C(C)C)[C@H](C)CC)[C@H](C)OC(=O)[C@H](C(C)C)NC1=O = 213

Q) Tell me measured GI50 for C/C=C1\NC(=O)[C@H](Cc2ccccc2)NC(=O)[C@@H](C(C)C)NC(=O)[C@@H]([C@H](C)CC)NC(=O)[C@H](NC(=O)[C@H](NC(=O)[C@H](CCCN)NC(=O)[C@H]2CCCN2C(=O)[C@H](NC(=O)[C@@H](NC(=O)[C@@H](NC(=O)[C@H](NC(=O)CC[C@@H](C)CC)C(C)C)[C@@H](C)OC(=O)C(F)(F)F)C(C)C)C(C)C)[C@H](C)CC)[C@H](C)OC(=O)[C@H](C(C)C)NC1=O please.
A) 772
